We begin with a simple list: items and their reported pIC50.
# EXPERIMENTAL_TARGET: rat mGlu5 receptor (Rattus norvegicus)
# Construct: expressed in transfected cells; host or cells: HEK293 cells (EAAC1 glutamate transporter cotransfected)
# TEST_DESCRIPTION: IP1 accumulation (IP-One HTRF) in transiently transfected HEK293 cells
# Type: cell-based
# ASSAY_SETUP: IP1 production, HEK293 cells with rat mGlu5 and EAAC1, 30 min incubation, 100 nM Quisqualate
pIC50: −log10 of the molar value.

RECORD_SMILES	pIC50
COc1cc(/N=N/c2ccccn2)ccc1NC(=O)c1ccccc1Cl	> 7.00
COc1cc(/N=N/c2ccccn2)ccc1NC(=O)c1cccnc1	6.30 to 7.00
COc1cc(/N=N/c2ccccn2)ccc1NC(=O)c1ccc(Cl)cc1Cl	5.70 to 6.30
COc1cc(NC(=O)c2ccccn2)ccc1/N=N/c1ccccn1	4.30 to 5.00
O=C(Nc1ccc(/N=N/c2ccccn2)cc1)c1ccccn1	5.00 to 5.70

====

# EXPERIMENTAL_TARGET: rat mGlu5 receptor (Rattus norvegicus, UniProt P31424)
# Sequence (P31424 21-1203): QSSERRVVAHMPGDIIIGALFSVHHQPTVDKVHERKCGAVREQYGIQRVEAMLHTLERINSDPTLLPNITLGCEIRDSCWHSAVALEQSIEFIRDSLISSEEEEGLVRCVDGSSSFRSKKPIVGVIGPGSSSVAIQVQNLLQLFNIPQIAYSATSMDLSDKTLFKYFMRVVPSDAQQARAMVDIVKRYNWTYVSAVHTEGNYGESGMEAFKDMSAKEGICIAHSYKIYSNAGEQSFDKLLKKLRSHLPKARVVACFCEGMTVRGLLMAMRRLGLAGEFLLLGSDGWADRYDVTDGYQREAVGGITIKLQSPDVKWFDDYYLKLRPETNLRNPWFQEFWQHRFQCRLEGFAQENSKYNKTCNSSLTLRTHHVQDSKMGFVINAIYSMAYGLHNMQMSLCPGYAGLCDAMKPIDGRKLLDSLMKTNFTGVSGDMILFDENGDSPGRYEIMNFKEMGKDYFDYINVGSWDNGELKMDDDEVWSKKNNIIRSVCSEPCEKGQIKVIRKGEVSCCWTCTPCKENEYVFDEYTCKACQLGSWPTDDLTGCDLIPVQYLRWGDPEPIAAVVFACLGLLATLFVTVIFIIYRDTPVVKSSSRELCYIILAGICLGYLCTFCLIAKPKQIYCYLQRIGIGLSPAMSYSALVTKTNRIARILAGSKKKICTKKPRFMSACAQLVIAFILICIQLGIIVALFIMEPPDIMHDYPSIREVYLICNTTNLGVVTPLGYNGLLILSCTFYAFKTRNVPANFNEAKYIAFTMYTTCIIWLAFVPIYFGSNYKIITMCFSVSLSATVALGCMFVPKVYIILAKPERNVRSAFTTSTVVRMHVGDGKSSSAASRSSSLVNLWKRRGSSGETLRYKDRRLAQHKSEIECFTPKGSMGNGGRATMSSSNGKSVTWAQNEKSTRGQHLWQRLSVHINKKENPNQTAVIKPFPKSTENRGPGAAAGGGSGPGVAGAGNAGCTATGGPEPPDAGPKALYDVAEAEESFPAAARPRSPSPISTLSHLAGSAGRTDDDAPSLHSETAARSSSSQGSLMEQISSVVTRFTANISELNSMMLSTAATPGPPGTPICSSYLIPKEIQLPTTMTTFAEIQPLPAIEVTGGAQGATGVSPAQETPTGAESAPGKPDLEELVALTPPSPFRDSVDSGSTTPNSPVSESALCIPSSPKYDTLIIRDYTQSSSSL
# TEST_DESCRIPTION: IP1 accumulation (IP-One HTRF) in transiently transfected HEK293 cells
# ASSAY_SETUP: IP1 production, HEK293 cells with rat mGlu5 and EAAC1, 30 min incubation, 100 nM Quisqualate
pIC50: −log10 of the molar value.

COMPOUND	pIC50
N#Cc1cc(/N=N/c2ccccn2)ccc1NC(=O)c1ccccn1 [Compound 1g]	5.00 to 5.70
COc1cc(/N=N/c2ccccn2)ccc1NC(=O)C(C)C [Compound 1m]	> 7.00
COc1cc(/N=N/c2ccccn2)ccc1NC(=O)c1ccncc1 [Compound 1f]	5.70 to 6.30
O=C(Nc1cccc(/N=N/c2ccccn2)c1)c1ccccn1 [Compound 1t]	4.30 to 5.00
COc1cc(/N=N/c2ccccn2)ccc1NC(=O)c1ccc(C(=O)c2ccccc2)cc1 [Compound 1a]	5.70 to 6.30

====

# EXPERIMENTAL_TARGET: rat mGlu5 receptor (Rattus norvegicus, UniProt P31424)
# TEST_DESCRIPTION: IP1 accumulation (IP-One HTRF) in transiently transfected HEK293 cells
# ASSAY_SETUP: IP1 production, HEK293 cells with rat mGlu5 and EAAC1, 30 min incubation, 100 nM Quisqualate
pIC50: −log10 of the molar value.
We begin with a simple list: items and their reported pIC50.
RECORDED_METRIC: pIC50

COMPOUND	REPORTED_VALUE
COc1cc(/N=N/c2ccccn2)ccc1NC(=O)c1ccccc1F [Compound 1p]	6.30 to 7.00
O=C(Nc1ccccn1)c1ccc(/N=N/c2ccccn2)cc1 [Compound 1s]	4.30 to 5.00
COc1cc(/N=N/c2ccccn2)ccc1NC(=O)c1cscn1 [Compound 1r]	6.30 to 7.00
COc1cc(/N=N/c2ccccn2)ccc1NC(=O)c1ccccn1 [Compound 1d]	6.30 to 7.00
COc1cc(/N=N/c2ccccn2)ccc1N1C(=O)c2ccccc2C1=O [Compound 1j]	5.00 to 5.70
COc1cc(/N=N/c2ccccn2)ccc1NC(=O)c1ccccc1 [Compound 1l]	6.30 to 7.00
COc1cc(/N=N/c2ccccn2)ccc1NC(=O)Nc1ccccc1F [Compound 1o]	5.70 to 6.30
COc1cc(/N=N/c2ccccn2)ccc1N(C(=O)c1ccccc1)C(=O)c1ccccc1 [Compound 1k]	5.70 to 6.30
COc1cc(/N=N/c2ccccn2)ccc1NC(=O)C1CCCCC1 [Compound 1n]	> 7.00

====

# EXPERIMENTAL_TARGET: rat metabotropic glutamate receptor 5 (mGlu5) (Rattus norvegicus)
# Sequence (P31424 21-1171 isoform P31424-2 limits assumed): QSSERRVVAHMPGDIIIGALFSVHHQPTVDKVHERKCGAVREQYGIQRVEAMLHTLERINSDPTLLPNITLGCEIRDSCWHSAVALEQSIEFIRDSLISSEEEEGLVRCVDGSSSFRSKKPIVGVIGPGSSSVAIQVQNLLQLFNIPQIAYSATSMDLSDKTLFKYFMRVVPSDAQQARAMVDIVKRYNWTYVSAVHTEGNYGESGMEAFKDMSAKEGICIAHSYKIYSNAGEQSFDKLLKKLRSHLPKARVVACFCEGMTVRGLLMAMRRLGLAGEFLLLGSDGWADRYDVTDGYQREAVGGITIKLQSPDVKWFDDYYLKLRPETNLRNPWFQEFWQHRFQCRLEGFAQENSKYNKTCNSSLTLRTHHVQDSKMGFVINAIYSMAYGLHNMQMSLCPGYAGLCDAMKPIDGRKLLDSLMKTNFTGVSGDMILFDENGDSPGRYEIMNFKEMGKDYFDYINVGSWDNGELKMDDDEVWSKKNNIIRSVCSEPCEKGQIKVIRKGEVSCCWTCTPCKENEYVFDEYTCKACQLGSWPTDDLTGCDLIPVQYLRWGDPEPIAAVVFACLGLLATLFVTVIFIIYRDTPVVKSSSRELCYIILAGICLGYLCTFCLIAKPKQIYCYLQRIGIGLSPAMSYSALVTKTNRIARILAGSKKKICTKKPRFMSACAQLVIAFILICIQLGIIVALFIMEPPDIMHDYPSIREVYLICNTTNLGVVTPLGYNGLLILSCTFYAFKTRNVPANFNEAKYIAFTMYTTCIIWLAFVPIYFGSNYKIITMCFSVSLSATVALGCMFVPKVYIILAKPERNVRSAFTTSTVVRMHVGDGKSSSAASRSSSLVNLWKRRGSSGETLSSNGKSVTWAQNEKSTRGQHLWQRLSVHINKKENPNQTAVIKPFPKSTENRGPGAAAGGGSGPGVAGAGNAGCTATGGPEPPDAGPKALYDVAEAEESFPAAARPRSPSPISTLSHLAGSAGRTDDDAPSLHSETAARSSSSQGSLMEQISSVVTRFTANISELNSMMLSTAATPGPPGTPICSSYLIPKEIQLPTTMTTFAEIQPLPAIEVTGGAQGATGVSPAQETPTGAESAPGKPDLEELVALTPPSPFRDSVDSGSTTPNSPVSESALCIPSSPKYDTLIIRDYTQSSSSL
# TEST_DESCRIPTION: Single-cell calcium imaging (Fura-2) of quisqualate-evoked calcium oscillations, with photoisomerization by 390/490 nm light
# ASSAY_SETUP: in the dark or under 490 nm light, 3 µM quisqualate, HEK tsA201 cells; read-out: IC50 (inhibitory profile on calcium oscillations)
RECORDED_METRIC: IC50 (nM)

RECORD_SMILES	REPORTED_VALUE
COc1cc(/N=N/c2ccccn2)ccc1NC(=O)c1ccccc1Cl	30
